Hello, the source for this data is PubChem BioAssay AID2060892, in case you need it.

Test system: HOP-62 complex spheroids with HUVEC/MSC, viability
Assay Summary: Anticancer human tumor HOP-62 cell line growth inhibition [RAS];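 note: spheroids exposed to agents for seven days before readout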;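 for viability, T/C: 100% = DMSO vehicle control viability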
Particulars: second compound 0.003 µM; first compound 1 µM; stronger effect = lower value
Reported Endpoint: viability, T/C (%)
Just the number please, in %, no unit attached.

>>> result_value("CC(Nc1ccc2c(c1)OCCn1cc(N3C(=O)OCC3C(F)F)nc1-2)C(N)=O (configuration not stated) + CCn1c(-c2cccnc2C(C)OC)c2c3cc(ccc31)N1CCOC(CC(NC(=O)C(C(C)C)N(C)C(=O)C3(F)CCN(C(=O)C#CC(C)(C)N(C)C)CC3)C(=O)N3CCCC(N3)C(=O)OCC(C)(C)C2)C1")
50.9

What value of measured viability, T/C is listed for C=CC(=O)N1CCN(c2nc(OCC3CCCN3C)nc3c(F)c(-c4nc(N)cc(C)c4C(F)(F)F)c(Cl)cc23)C(C)C1 (configuration not stated) + CCn1c(-c2cc(N3CCN(C)CC3)cnc2C(C)OC)c2c3cc(ccc31)-c1csc(n1)CC(NC(=O)C1CC1C)C(=O)N1CCCC(N1)C(=O)OCC(C)(C)C2 ?
54.5

----------
System: HOP-62 complex spheroids with HUVEC/MSC, viability
Assay Summary: Anticancer human tumor HOP-62 cell line growth inhibition [RAS];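 note: spheroids exposed to agents for seven days before readout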;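 for viability, T/C: 100% = DMSO vehicle control viability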
Particulars: second compound 0.000949 µM; first compound 0.0316 µM; stronger effect = lower value
Readings of viability, T/C for the listed compounds

>>> result_value("C=CC(=O)N1CCN(c2nc(OCC3CCCN3C)nc3c(F)c(-c4nc(N)cc(C)c4C(F)(F)F)c(Cl)cc23)C(C)C1 (stereo not drawn) + CCn1c(-c2cccnc2C(C)OC)c2c3cc(ccc31)N1CCOC(CC(NC(=O)C(C(C)C)N(C)C(=O)C3(F)CCN(C(=O)C#CC(C)(C)N(C)C)CC3)C(=O)N3CCCC(N3)C(=O)OCC(C)(C)C2)C1")
"69.5%"
>>> result_value("Cc1nc(N2CCC3(CC2)COC(C)C3N)c(CO)nc1Sc1ccnc(N)c1Cl (stereo not drawn) + CCn1c(-c2cc(N3CCN(C)CC3)cnc2C(C)OC)c2c3cc(ccc31)-c1csc(n1)CC(NC(=O)C1CC1C)C(=O)N1CCCC(N1)C(=O)OCC(C)(C)C2")
"110%"
>>> result_value("C=CC(=O)N1CCN(c2nc(OCC3CCCN3C)nc3c(F)c(-c4nc(N)cc(C)c4C(F)(F)F)c(Cl)cc23)C(C)C1 (stereo not drawn) + CCn1c(-c2cc(N3CCN(C)CC3)cnc2C(C)OC)c2c3cc(ccc31)-c1csc(n1)CC(NC(=O)C1CC1C)C(=O)N1CCCC(N1)C(=O)OCC(C)(C)C2")
"66.2%"

// lookup viability, T/C for Nc1ccn(C2OC(CO)C(O)C2(F)F)c(=O)n1 (stereo not drawn) + CCn1c(-c2cccnc2C(C)OC)c2c3cc(ccc31)N1CCOC(CC(NC(=O)C(C(C)C)N(C)C(=O)C3(F)CCN(C(=O)C#CC(C)(C)N(C)C)CC3)C(=O)N3CCCC(N3)C(=O)OCC(C)(C)C2)C1
9.65%

Now consider C=CC(=O)Nc1cc(Nc2nccc(-c3cn(C)c4ccccc34)n2)c(OC)cc1N(C)CCN(C)C + CCn1c(-c2cccnc2C(C)OC)c2c3cc(ccc31)N1CCOC(CC(NC(=O)C(C(C)C)N(C)C(=O)C3(F)CCN(C(=O)C#CC(C)(C)N(C)C)CC3)C(=O)N3CCCC(N3)C(=O)OCC(C)(C)C2)C1 .
83.9%

Same lookup for CC(C)n1nc(-c2ccc3oc(N)nc3c2)c2c(N)ncnc21 + CCn1c(-c2cccnc2C(C)OC)c2c3cc(ccc31)N1CCOC(CC(NC(=O)C(C(C)C)N(C)C(=O)C3(F)CCN(C(=O)C#CC(C)(C)N(C)C)CC3)C(=O)N3CCCC(N3)C(=O)OCC(C)(C)C2)C1 , please.
55.6%

Same question for Nc1ccn(C2OC(CO)C(O)C2(F)F)c(=O)n1 (stereo not drawn) + CCn1c(-c2cc(N3CCN(C)CC3)cnc2C(C)OC)c2c3cc(ccc31)-c1csc(n1)CC(NC(=O)C1CC1C)C(=O)N1CCCC(N1)C(=O)OCC(C)(C)C2 please.
16.9%

Same read-out for CC(=O)OC12COC1CC(O)C1(C)C(=O)C(O)C3=C(C)C(OC(=O)C(O)C(NC(=O)OC(C)(C)C)c4ccccc4)CC(O)(C(OC(=O)c4ccccc4)C21)C3(C)C (stereo not drawn) + CCn1c(-c2cc(N3CCN(C)CC3)cnc2C(C)OC)c2c3cc(ccc31)-c1csc(n1)CC(NC(=O)C1CC1C)C(=O)N1CCCC(N1)C(=O)OCC(C)(C)C2 ?
41.1%

----------
Test system: HOP-62 complex spheroids with HUVEC/MSC, viability
Assay Summary: Anticancer human tumor HOP-62 cell line growth inhibition [RAS]; active means viability on the fitted dose curve at most 10% of control; inactive means the rest;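 note: spheroids exposed to agents for seven days before readout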
Particulars: second compound 0.00949 µM; first compound 1 µM
Permitted responses: 1 = active, -1 = inactive

Study these solved cases before continuing.
>>> label_class("Nc1ccn(C2OC(CO)C(O)C2(F)F)c(=O)n1 (stereo unspecified) + CCn1c(-c2cc(N3CCN(C)CC3)cnc2C(C)OC)c2c3cc(ccc31)-c1csc(n1)CC(NC(=O)C1CC1C)C(=O)N1CCCC(N1)C(=O)OCC(C)(C)C2")
-1
>>> label_class("Nc1ccn(C2OC(CO)C(O)C2(F)F)c(=O)n1 (stereo unspecified) + CCn1c(-c2cccnc2C(C)OC)c2c3cc(ccc31)N1CCOC(CC(NC(=O)C(C(C)C)N(C)C(=O)C3(F)CCN(C(=O)C#CC(C)(C)N(C)C)CC3)C(=O)N3CCCC(N3)C(=O)OCC(C)(C)C2)C1")
1
>>> label_class("C=CC(=O)N1CCN(c2nc(OCC3CCCN3C)nc3c(F)c(-c4nc(N)cc(C)c4C(F)(F)F)c(Cl)cc23)C(C)C1 (stereo unspecified) + CCn1c(-c2cc(N3CCN(C)CC3)cnc2C(C)OC)c2c3cc(ccc31)-c1csc(n1)CC(NC(=O)C1CC1C)C(=O)N1CCCC(N1)C(=O)OCC(C)(C)C2")
-1
>>> label_class("CC(C)NCC(C(=O)N1CCN(c2ncnc3c2C(C)CC3O)CC1)c1ccc(Cl)cc1 (stereo unspecified) + CCn1c(-c2cc(N3CCN(C)CC3)cnc2C(C)OC)c2c3cc(ccc31)-c1csc(n1)CC(NC(=O)C1CC1C)C(=O)N1CCCC(N1)C(=O)OCC(C)(C)C2")
-1
>>> label_class("CC(Nc1ccc2c(c1)OCCn1cc(N3C(=O)OCC3C(F)F)nc1-2)C(N)=O (stereo unspecified) + CCn1c(-c2cccnc2C(C)OC)c2c3cc(ccc31)N1CCOC(CC(NC(=O)C(C(C)C)N(C)C(=O)C3(F)CCN(C(=O)C#CC(C)(C)N(C)C)CC3)C(=O)N3CCCC(N3)C(=O)OCC(C)(C)C2)C1")
-1

Okay, next one:
# lookup: test call for C=CC(=O)N1CCN(c2nc(OCC3CCCN3C)nc3c(F)c(-c4nc(N)cc(C)c4C(F)(F)F)c(Cl)cc23)C(C)C1 (stereo unspecified) + CCn1c(-c2cccnc2C(C)OC)c2c3cc(ccc31)N1CCOC(CC(NC(=O)C(C(C)C)N(C)C(=O)C3(F)CCN(C(=O)C#CC(C)(C)N(C)C)CC3)C(=O)N3CCCC(N3)C(=O)OCC(C)(C)C2)C1
-1

----------
System: HOP-62 complex spheroids with HUVEC/MSC, viability
Assay Summary: Anticancer human tumor HOP-62 cell line growth inhibition [RAS];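 note: spheroids exposed to agents for seven days before readout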
Particulars: curve of first compound; second compound 0.00316 µM
Reported Endpoint: IC50 (nM)
Numeric only. Scale: nM

>>> result_value("CC1(O)CCCC1n1c(=O)c(C(F)F)cc2cnc(NC3CCN(S(C)(=O)=O)CC3)nc21 (stereo not given) + C=CC(=O)N1CCN(c2nc(OCC3CCCN3C)nc3c(F)c(-c4nc(N)cc(C)c4C(F)(F)F)c(Cl)cc23)C(C)C1")
140

Now consider a different compound.
For the record CCC(CC)c1cc(NC2CCC(N)C2)n2nccc2n1 (stereo not given) + C=CC(=O)N1CCN(c2nc(OCC3CCCN3C)nc3c(F)c(-c4nc(N)cc(C)c4C(F)(F)F)c(Cl)cc23)C(C)C1 , what value of IC50 is listed for HOP-62 complex spheroids with HUVEC/MSC, viability?
1430

----------
Tested on: HOP-62 complex spheroids with HUVEC/MSC, viability
Assay Summary: Anticancer human tumor HOP-62 cell line growth inhibition [RAS];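 note: spheroids exposed to agents for seven days before readout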;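 for viability, T/C: 100% = DMSO vehicle control viability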
Particulars: second compound 0.0949 µM; first compound 0.0316 µM; stronger effect = lower value
Reported Endpoint: viability, T/C (%)
Report the figure in % without appending any unit label.

>>> result_value("CC(Nc1ccc2c(c1)OCCn1cc(N3C(=O)OCC3C(F)F)nc1-2)C(N)=O (configuration not stated) + CCn1c(-c2cccnc2C(C)OC)c2c3cc(ccc31)N1CCOC(CC(NC(=O)C(C(C)C)N(C)C(=O)C3(F)CCN(C(=O)C#CC(C)(C)N(C)C)CC3)C(=O)N3CCCC(N3)C(=O)OCC(C)(C)C2)C1")
103

What does the data say about its viability, T/C? Entry: CC(C)n1nc(-c2ccc3oc(N)nc3c2)c2c(N)ncnc21 + CCn1c(-c2cccnc2C(C)OC)c2c3cc(ccc31)N1CCOC(CC(NC(=O)C(C(C)C)N(C)C(=O)C3(F)CCN(C(=O)C#CC(C)(C)N(C)C)CC3)C(=O)N3CCCC(N3)C(=O)OCC(C)(C)C2)C1
25.6
